Target: mouse ACVR2A (mouse, UniProt P27038 20-135, limits assumed); further: test concentration or dose not given here
Sequence (P27038 20-135 limits assumed): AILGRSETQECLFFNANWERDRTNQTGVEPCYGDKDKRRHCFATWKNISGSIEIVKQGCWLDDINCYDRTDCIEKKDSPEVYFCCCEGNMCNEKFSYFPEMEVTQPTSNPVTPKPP
Test: ELISA
Below, each entry is listed alongside its reported optical density.
Field: numeric (OD). Do not append units.

| BINDER | optical density, OD |
| --- | --- |
| 373_D02 (antibody, V domains shown, VH and VL only) VH: EVQLLESGGGLVQPGGSLRLSCAASGFTFSSYSMNWVRQAPGKGLEWVSNINYNSGYKGYADSVKGRFTISRDNSKNTLYLQMNSLRAEDTAVYYCARSATWHDTHLDYWGQGTLVTVSS VL: DIQMTQSPSSLSASVGDRVTITCRASQSILSYLNWYQQKPGKAPKLLIYAATSLASGVPSRFSGSGSGTDFTLTISSLQPEDFATYYCQQSYDLPLTFGGGTKVEIK | 3.65 |

Problem: optical density for 374_G12 (antibody, V domains shown, VH and VL only) VH: EVQLLESGGGLVQPGGSLRLSCAASGFTFDDYGMNWVRQAPGKGLEWVSSINYNGGYKSYADSVKGRFTISRDNSKNTLYLQMNSLRAEDTAVYYCARSATWHDTHLDYWGQGTLVTVSS VL: DIQMTQSPSSLSASVGDRVTITCRASQSILTYVNWYQQKPGKAPKLVIYAATSLASGVPSRFSGSGSGTDFTLTISSLQPEDFATYYCQQSYNSPLTFGGGTKVEIK ?
Result: 3.21

Problem: Repeat with 374_G01 (antibody, V domains shown, VH and VL only) VH: EVQLLESGGGLVQPGGSLRLSCAASGFTFDSYSMNWVRQAPGKGLEWVSNINYNSGYTSYADSVKGRFTISRDNSKNTLYLQMNSLRAEDTAVYYCARSATWHDTHLDYWGQGTLVTVSS VL: DIQMTQSPSSLSASVGDRVTITCRASQSILTYVNWYQQKPGKAPKLLIYATTSRHSGVPSRFSGSGSGTDFTLTISSLQPEDFATYYCQQSYNLPLTFGGGTKVEIK
Result: 3.6

Problem: Can you check 371_B05 (antibody, V domains shown, VH and VL only) VH: EVQLLESGGGLVQPGGSLRLSCAASGFTFSSYSMNWVRQAPGKGLEWVSGINYNSGYTSYADSVKGRFTISRDNSKNTLYLQMNSLRAEDTAVYYCARSATWHDTHLDYWGQGTLVTVSS VL: DIQMTQSPSSLSASVGDRVTITCRASQSILTYLNWYQQKPGKAPKLVIYAATSLASGVPSRFSGSGSGTDFTLTISSLQPEDFATYYCQQSDETPLTFGGGTKVEIK next?
Result: 1.24

Problem: 366_C03 (antibody, V domains shown, VH and VL only) VH: EVQLLESGGGLVQPGGSLRLSCAASGFTFDSYGMNWVRQAPGKGLEWVSNINYNGGYTGYADSVKGRFTISRDNSKNTLYLQMNSLRAEDTAVYYCARSATWHDTHLDYWGQGTLVTVSS VL: DIQMTQSPSSLSASVGDRVTITCRASQSILSYLNWYQQKPGKAPKLVIYAATSRASGVPSRFSGSGSGTDFTLTISSLQPEDFATYYCQQSYSNPLTFGGGTKVEIK ?
Result: 2.74
